System: HSV
Assay: Plaque Reduction Assay for HSV Antiviral Activity (Plaque)
Assay type: cell-based
Record form. Attribute: IC50. Fill in for each entry.
Dear colleague, please return just the value in µg/mL, with no unit written.

Entry C=CCOc1ccc2nc3c(c(C)nn3CC=C)c(O)c2c1 needs its IC50 filled in; supply it.
20

Entry COc1ccc2nc3[nH]nc(C)c3c(OCCN3CCOCC3)c2c1 needs its IC50 filled in; supply it.
20

Entry COc1ccc2nc3[nH]nc(C)c3c(OCCN(C)C)c2c1 needs its IC50 filled in; supply it.
0.7

---

Test: compound toxicity assay (3H-LEU)
Format: cell-based
Record form. Attribute: log10 CC50. Fill in for each entry.
All values: log10 CC50 [µg/mL].

Entry COc1cccc2c(O)c3c(C)nn(C(C)=O)c3nc12 needs its log10 CC50 filled in; supply it.
2.00

Entry COc1ccc2nc3c(c(C)nn3C(C)=O)c(O)c2c1 needs its log10 CC50 filled in; supply it.
1.36

Entry CCCCC(=O)Oc1ccc2nc3[nH]nc(C)c3c(OC(=O)CCCC)c2c1 needs its log10 CC50 filled in; supply it.
0.70

Entry CC(=O)Oc1ccc2nc3[nH]nc(C)c3c(OC(C)=O)c2c1 needs its log10 CC50 filled in; supply it.
1.15

Entry CC(=O)Oc1c2cc(F)ccc2nc2[nH]nc(C)c12 needs its log10 CC50 filled in; supply it.
1.63

Entry CC(=O)Oc1ccc2nc3c(c(C)nn3C(C)=O)c(O)c2c1 needs its log10 CC50 filled in; supply it.
1.18

Entry CC(=O)n1nc(C)c2c(O)c3cc(C)ccc3nc21 needs its log10 CC50 filled in; supply it.
2.00

---

Tested on: HSV Early Gene Expression
Assay: Transient Expression Assay for Effects Against HSV Early Gene Expression (β Galactosidase Assay or βgal)
Type: cell-based
Conditions: read-out: βgal
Field: label. Allowed values: condition met (IC50 < 3 µg/mL) or condition not met (IC50 >= 3 µg/mL).

Below 3 µg/mL on IC50? Entry CC(=O)n1nc(C)c2c(O)c3cc(F)ccc3nc21
condition met

Below 3 µg/mL on IC50? Entry CC(=O)n1nc(C)c2c(O)c3cc(Cl)ccc3nc21
condition not met

Below 3 µg/mL on IC50? Entry COc1ccc2nc3c(c(C)nn3CCCO)c(OC)c2c1
condition not met

Below 3 µg/mL on IC50? Entry CCCCCCCn1nc(C)c2c(OC(C)=O)c3cc(OC)ccc3nc21
condition met

Below 3 µg/mL on IC50? Entry CC(=O)Oc1ccc2nc3c(c(C)nn3C(C)=O)c(O)c2c1
condition not met

---

Assay: compound toxicity assay (3H-LEU)
Assay type: cell-based
Recorded metric: CC50 (µg/mL)
Dear colleague, please return just the value in µg/mL, with no unit written.

Entry CC(=O)n1nc(C)c2c(O)c3cc(F)ccc3nc21 needs its CC50 filled in; supply it.
32

Entry CC(=O)n1nc(C)c2c(O)c3cc(Cl)ccc3nc21 needs its CC50 filled in; supply it.
37

Entry CCCCCCCn1nc(C)c2c(=O)c3cc(C)ccc3[nH]c21 needs its CC50 filled in; supply it.
3.4

Entry COc1ccc2nc3[nH]nc(C)c3c(OCCN(C)C)c2c1 needs its CC50 filled in; supply it.
5.4
